molecular target: Human recombinant FAP (Homo sapiens, UniProt Q12884); assay: FRET-based FAP protease activity assay; type: biochemical; set-up: purchased R&D systems 3715-SE; settings: pIC50 Category (Activity), FRET-peptide substrate, 37° C.
Sequence (Q12884 whole entry): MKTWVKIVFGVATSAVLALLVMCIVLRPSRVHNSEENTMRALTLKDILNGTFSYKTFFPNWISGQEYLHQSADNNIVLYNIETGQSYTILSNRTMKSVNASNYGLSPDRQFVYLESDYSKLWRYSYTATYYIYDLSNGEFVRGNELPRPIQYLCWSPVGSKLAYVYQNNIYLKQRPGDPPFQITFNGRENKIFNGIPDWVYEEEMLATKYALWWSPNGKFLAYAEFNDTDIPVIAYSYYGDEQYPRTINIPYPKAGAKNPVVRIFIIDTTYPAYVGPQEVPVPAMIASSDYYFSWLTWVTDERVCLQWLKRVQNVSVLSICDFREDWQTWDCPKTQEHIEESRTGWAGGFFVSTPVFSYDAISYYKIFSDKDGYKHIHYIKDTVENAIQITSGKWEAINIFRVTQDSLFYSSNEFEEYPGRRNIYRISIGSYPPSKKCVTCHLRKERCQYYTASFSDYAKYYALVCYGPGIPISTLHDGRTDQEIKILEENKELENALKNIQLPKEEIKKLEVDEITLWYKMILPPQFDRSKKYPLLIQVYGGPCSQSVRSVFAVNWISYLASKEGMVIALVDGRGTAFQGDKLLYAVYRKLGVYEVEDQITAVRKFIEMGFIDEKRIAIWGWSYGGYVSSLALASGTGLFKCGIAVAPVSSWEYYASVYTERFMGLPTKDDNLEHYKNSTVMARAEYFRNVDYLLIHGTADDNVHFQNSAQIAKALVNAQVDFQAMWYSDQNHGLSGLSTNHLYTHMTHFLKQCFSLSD
Numbered stars: 1 amine (or outer) side, 2 acyl side, 3 side chain; on linkers, the order of the positions; unused ones are H or OH. Bridge positions count the residues as written; N and C are the ends. Square brackets hold non-standard residues; d marks the D form. Peptide text beside a SMILES is read from it. * marks the point of attachment. NH(1-deoxy-D-glucityl) = OC[C@@H](O)[C@@H](O)[C@H](O)[C@@H](O)CN*; X18 = NCCNCC(CNCCN)C(=O)N[C@@H](CCC(=O)O)C(=O)NCCCOCCOCCOCCCN*; X3 = NCCNCC(CNCCN)C(=O)NCCCOCCOCCOCCCN*; mXylylene = c1cc(C[*:1])cc(C[*:2])c1; Suc = O=C(CCC(=O)[*:2])[*:1]; Nle = CCCC[C@H](N)C(=O)O
MEASUREMENT_KIND: IC50

See these solved cases before continuing.
[[record]]
compound = "CCCCOC(=O)N[C@H]1CSCc2cc(CSCCNC(=O)CN3CCN(CC(=O)O)CCN(CC(=O)O)CCN(CC(=O)O)CC3)cc(c2)CSC[C@@H](C(=O)O)NC(=O)[C@H](Cc2ccccc2)NC(=O)[C@H](CCC(N)=O)NC(=O)[C@H]([C@@H](C)O)NC(=O)[C@@H]2CCCN2C(=O)[C@@H]2CCCN2C1=O"
measurement_kind = "IC50"
measured = "< 10 nM"

[[record]]
compound = "CCCC[C@H](NC(=O)CCC(=O)NCCCOCCOCCOCCCNC(=O)[C@H](CCC(=O)O)NC(=O)C(CNCCN)CNCCN)C(=O)N[C@H]1CSCc2cccc(c2)CSC[C@@H](C(=O)O)NC(=O)[C@H](Cc2ccccc2)NC(=O)[C@H](CCC(=O)O)NC(=O)[C@H]([C@@H](C)O)NC(=O)[C@@H]2CCCN2C(=O)[C@@H]2CCCN2C1=O [3BP-4222] ({X18-Suc}-[Nle]CPPTEFC-OH; linker 2-8 via mXylylene)"
measurement_kind = "IC50"
measured = "10 to 79.4 nM"

[[record]]
compound = "CCCC[C@H](NC(=O)[C@H](CCC(=O)NC[C@H](O)[C@@H](O)[C@H](O)[C@H](O)CO)NC(=O)CCC(=O)NCCCOCCOCCOCCCNC(=O)C(CNCCN)CNCCN)C(=O)N[C@H]1CSCc2cccc(c2)CSC[C@@H](C(=O)O)NC(=O)[C@H](Cc2ccccc2)NC(=O)[C@H](CCC(N)=O)NC(=O)[C@H]([C@@H](C)O)NC(=O)[C@@H]2CCCN2C(=O)[C@@H]2CCCN2C1=O"
measurement_kind = "IC50"
measured = "> 1000 nM"


Task item: Requested read-out: IC50. Entry: CCCC[C@H](NC(=O)[C@H](CCC(=O)NC[C@H](O)[C@@H](O)[C@H](O)[C@H](O)CO)NC(=O)CCC(=O)NCCCOCCOCCOCCCNC(=O)C(CNCCN)CNCCN)C(=O)N[C@H]1CSCc2cccc(c2)CSC[C@@H](C(=O)O)NC(=O)[C@H](Cc2ccccc2)NC(=O)[C@H](CCC(=O)O)NC(=O)[C@H]([C@@H](C)O)NC(=O)[C@@H]2CCCN2C(=O)[C@@H]2CCCN2C1=O [3BP-4231] ({X3-Suc}-E(NH(1-deoxy-D-glucityl))[Nle]CPPTEFC-OH; linker 3-9 via mXylylene)
Reply: > 1000 nM

Task item: Requested read-out: IC50. Entry: C=CCOC(=O)N[C@H]1CSCc2cc(CSCCNC(=O)CN3CCN(CC(=O)O)CCN(CC(=O)O)CCN(CC(=O)O)CC3)cc(c2)CSC[C@@H](C(=O)O)NC(=O)[C@H](Cc2ccccc2)NC(=O)[C@H](CCC(N)=O)NC(=O)[C@H]([C@@H](C)O)NC(=O)[C@@H]2CCCN2C(=O)[C@@H]2CCCN2C1=O
Reply: 10 to 79.4 nM

Task item: Requested read-out: IC50. Entry: C[C@@H](O)[C@@H]1NC(=O)[C@@H]2CCCN2C(=O)[C@@H]2CCCN2C(=O)[C@@H](NC(=O)C2CCCC2)CSCc2cc(CSCCNC(=O)CN3CCN(CC(=O)O)CCN(CC(=O)O)CCN(CC(=O)O)CC3)cc(c2)CSC[C@@H](C(=O)O)NC(=O)[C@H](Cc2ccccc2)NC(=O)[C@H](CCC(N)=O)NC1=O
Reply: 10 to 79.4 nM

---

target: Human recombinant FAP (Homo sapiens, UniProt Q12884); assay: FRET-based FAP protease activity assay; type: biochemical; design: purchased R&D systems 3715-SE; settings: pIC50 Category (Activity), FRET-based FAP protease activity assay, recombinant human FAP, 37° C.
Numbered stars: 1 amine (or outer) side, 2 acyl side, 3 side chain; on linkers, the order of the positions; unused ones are H or OH. Bridge positions count the residues as written; N and C are the ends. Square brackets hold non-standard residues; d marks the D form. Peptide text beside a SMILES is read from it. * marks the point of attachment. X35 = CC1(C)C(=CC=CC=CC2=[N+](CCCCS(=O)(=O)[O-])c3ccccc3C2(C)C)N(CCCCCC(=O)N2CCN(Cc3cc(C[*:1])cc(C[*:2])c3)CC2)c2ccccc21; X17 = NC(=O)[C@H](CCCCNC(=O)CN1CCN(CC(=O)O)CCN(CC(=O)O)CCN(CC(=O)O)CC1)NC(=O)CCC(=O)NCCCOCCOCCOCCCN*; Pro(4,4-F2) = O=C(O)[C@@H]1CC(F)(F)CN1; mXylylene = c1cc(C[*:1])cc(C[*:2])c1; Hexanoyl = CCCCCC(=O)*; Aib = CC(C)(N)C(=O)O
IC50: recorded values

See these solved cases before continuing.
[[record]]
compound = "CCCCCC(=O)N[C@H]1CSCc2cccc(c2)CSC[C@@H](C(N)=O)NC(=O)[C@H](Cc2ccccc2)NC(=O)[C@H](CCC(=O)O)NC(=O)[C@H]([C@@H](C)O)NC(=O)[C@@H]2CC(F)(F)CN2C(=O)[C@@H]2CCCN2C1=O [3BP-3365] (Hexanoyl-CP[Pro(4,4-F2)]TEFC-NH2; linker 1-7 via mXylylene)"
measurement_kind = "IC50"
measured = "100 to 794 nM"

[[record]]
compound = "CCCCCC(=O)N[C@H]1CSCc2cccc(c2)CSC[C@@H](C(=O)N[C@@H](CC(=O)O)C(=O)NCCCOCCOCCOCCCNC(=O)CCC(=O)N[C@@H](CCCCNC(=O)CN2CCN(CC(=O)O)CCN(CC(=O)O)CCN(CC(=O)O)CC2)C(N)=O)NC(=O)[C@H](Cc2ccccc2)NC(=O)[C@H](CCC(N)=O)NC(=O)[C@H]([C@@H](C)O)NC(=O)[C@@H]2CCCN2C(=O)[C@@H]2CCCN2C1=O [3BP-3395] (Hexanoyl-CPPTQFCD-X17; linker 1-7 via mXylylene)"
measurement_kind = "IC50"
measured = "< 10 nM"


Task item: Requested read-out: IC50. Entry: CSCC[C@H](NC(C)=O)C(=O)N[C@H]1CSCc2cccc(c2)CSC[C@@H](C(=O)N[C@@H](CC(=O)O)C(=O)N[C@@H](Cc2c[nH]cn2)C(=O)N[C@@H](Cc2ccccc2)C(=O)N[C@@H](CCCNC(=N)N)C(=O)N[C@@H](CC(=O)O)C(N)=O)NC(=O)[C@H](Cc2ccccc2)NC(=O)[C@H](CCC(=O)O)NC(=O)[C@H]([C@@H](C)O)NC(=O)[C@@H]2CCCN2C(=O)C(C)(C)NC1=O [3BP-3204] (Ac-MC[Aib]PTEFCDHFRD-NH2; linker 2-8 via mXylylene)
Reply: 10 to 79.4 nM

Task item: Requested read-out: IC50. Entry: CCCCCC(=O)N[C@H]1CSCc2cc(cc(CN3CCN(C(=O)CCCCCN4C(=CC=CC=CC5=[N+](CCCCS(=O)(=O)[O-])c6ccccc6C5(C)C)C(C)(C)c5ccccc54)CC3)c2)CSC[C@@H](C(=O)N[C@@H](CC(=O)O)C(N)=O)NC(=O)[C@H](Cc2ccccc2)NC(=O)[C@H](CCC(N)=O)NC(=O)[C@H]([C@@H](C)O)NC(=O)[C@@H]2CCCN2C(=O)[C@@H]2CCCN2C1=O [3BP-3693] (Hexanoyl-CPPTQFCD-NH2; linker 1-7 via X35)
Reply: 10 to 79.4 nM

Task item: Requested read-out: IC50. Entry: C[C@@H](O)[C@@H]1NC(=O)[C@@H]2CCCN2C(=O)[C@@H]2CCCN2C(=O)[C@@H](NC(=O)Cc2ccncc2)CSCc2cccc(c2)CSC[C@@H](C(N)=O)NC(=O)[C@H](Cc2ccccc2)NC(=O)[C@H](CCC(N)=O)NC1=O
Reply: 100 to 794 nM

Task item: Requested read-out: IC50. Entry: CCCCCC(=O)N[C@H]1CSCc2cccc(c2)CSC[C@@H](C(=O)N[C@@H](CC(=O)O)C(=O)N[C@@H](CCCNC(=N)N)C(N)=O)NC(=O)[C@H](Cc2ccccc2)NC(=O)[C@H](CCC(=O)O)NC(=O)[C@H]([C@@H](C)O)NC(=O)[C@@H]2CCCN2C(=O)[C@@H]2CCCN2C1=O [3BP-3299] (Hexanoyl-CPPTEFCDR-NH2; linker 1-7 via mXylylene)
Reply: < 10 nM
